System: Grb2 SH2 (UniProt P62993)
Assay protocol: SH2 binding enrichment of the phosphorylated peptide, bacterial display (enrichment ratio); higher = better substrate or ligand; peptides without Tyr show the background
Outcome measure: SH2 binding enrichment

Record excerpt, results attached:
{"Query sequence": "APTSGYQEFVH [IL4R_Y575]", "SH2 binding enrichment": 0.826}
{"Query sequence": "DISEPYEVFRI [IRF8_Y107_K108E_YF]", "SH2 binding enrichment": 1.03}
{"Query sequence": "ISDNAYQYMLT [MYH7_Y162]", "SH2 binding enrichment": 0.812}
{"Query sequence": "LQTYRYHGLSM [PDHA1_Y289_H292L]", "SH2 binding enrichment": 1.25}
{"Query sequence": "WNGDKYAATTT [TRIM39_Y439]", "SH2 binding enrichment": 0.994}
{"Query sequence": "AEPNIYQEKLS [USP54_Y1233_D1231N]", "SH2 binding enrichment": 1.12}
{"Query sequence": "KHGGNYVPAPK [OSCP1_Y237]", "SH2 binding enrichment": 1.3}
{"Query sequence": "KKMEVYQSIAD [MYBPC3_Y548_L545M]", "SH2 binding enrichment": 0.775}

I. GHLYAYNWISI [BEST1_Y227_D228N]
II. MFNPFYGLFEF [NEDD4L_Y680_YF]
III. SLAARYYNWVC [FLT4_Y1230_S1235C]
Reorder: SH2 binding enrichment, max to min. Give the order by naming the labels one after another as requested.
III, II, I

P. GSTLSYFGLAT [P2RX7_Y343_A348T]
Q. LVMFIYDIFGM [SCN1A_Y1684_A1685D]
Between P and Q , whose recorded SH2 binding enrichment is greater? Label of pick, please.
Q

A. FIAVGYVDDTQ [HLA-A_Y51]
B. DLDATYRPMFS [JUP_Y701_M697L_YF]
// pick min by SH2 binding enrichment: A , B Label of pick, please.
B
(B: 0.72, A: 1.05)

* * *

System: SHP2-C SH2
Assay protocol: SH2 binding enrichment of the phosphorylated peptide, bacterial display (enrichment ratio); higher = better substrate or ligand; peptides without Tyr show the background
Outcome measure: SH2 binding enrichment

Record excerpt, results attached:
{"Query sequence": "APSGNYVACGG [GNB1_Y111]", "Recorded measurement": 0.804}
{"Query sequence": "QKFMAYPSQGG [HLCS_Y236_L237P]", "Recorded measurement": 0.654}
{"Query sequence": "SVTGTYSPALN [TP53_Y126_C124G]", "Recorded measurement": 0.747}

1. DRLASYLDKVP [KRT14_Y129_R134P]
2. QRRYVYYYSYL [PTEN_Y176]
// pick min by SH2 binding enrichment: 1 , 2 Label of pick, please.
1

* * *

System: c-Src SH2
Assay protocol: SH2 binding enrichment of the phosphorylated peptide, bacterial display (enrichment ratio); higher = better substrate or ligand; peptides without Tyr show the background
Outcome measure: SH2 binding enrichment

{"Query sequence": "TGILLYGLASR [QARS1_Y57]", "SH2 binding enrichment": 0.497}

1. ERPGVYTNVVE [F11_Y608]
2. GFKVRYATWSI [FGFR1_Y210_YF]
3. FFRKFYNKSED [RYR1_Y4864]
4. SQSPHYFRSGQ [GPATCH8_Y1038_R1043Q]
Endpoint returns the given sequences ordered by ascending SH2 binding enrichment. Give the order by naming the labels one after another as requested.
3, 4, 2, 1
(3: 0.264, 4: 0.484, 2: 1.16, 1: 6.19)

1. GCKKRYDKDKP [THAP1_Y14_N12K]
2. RENGPYYASYP [GDAP2_Y487_T489A]
3. KVALLYKPFFF [POLE_Y100_P99L_YF]
Reorder: SH2 binding enrichment, max to min. Give the order by naming the labels one after another as requested.
3, 2, 1
(3: 1.49, 2: 0.705, 1: 0.337)

* * *

System: Fes (UniProt P07332)
Sequence (P07332 whole entry, looked up): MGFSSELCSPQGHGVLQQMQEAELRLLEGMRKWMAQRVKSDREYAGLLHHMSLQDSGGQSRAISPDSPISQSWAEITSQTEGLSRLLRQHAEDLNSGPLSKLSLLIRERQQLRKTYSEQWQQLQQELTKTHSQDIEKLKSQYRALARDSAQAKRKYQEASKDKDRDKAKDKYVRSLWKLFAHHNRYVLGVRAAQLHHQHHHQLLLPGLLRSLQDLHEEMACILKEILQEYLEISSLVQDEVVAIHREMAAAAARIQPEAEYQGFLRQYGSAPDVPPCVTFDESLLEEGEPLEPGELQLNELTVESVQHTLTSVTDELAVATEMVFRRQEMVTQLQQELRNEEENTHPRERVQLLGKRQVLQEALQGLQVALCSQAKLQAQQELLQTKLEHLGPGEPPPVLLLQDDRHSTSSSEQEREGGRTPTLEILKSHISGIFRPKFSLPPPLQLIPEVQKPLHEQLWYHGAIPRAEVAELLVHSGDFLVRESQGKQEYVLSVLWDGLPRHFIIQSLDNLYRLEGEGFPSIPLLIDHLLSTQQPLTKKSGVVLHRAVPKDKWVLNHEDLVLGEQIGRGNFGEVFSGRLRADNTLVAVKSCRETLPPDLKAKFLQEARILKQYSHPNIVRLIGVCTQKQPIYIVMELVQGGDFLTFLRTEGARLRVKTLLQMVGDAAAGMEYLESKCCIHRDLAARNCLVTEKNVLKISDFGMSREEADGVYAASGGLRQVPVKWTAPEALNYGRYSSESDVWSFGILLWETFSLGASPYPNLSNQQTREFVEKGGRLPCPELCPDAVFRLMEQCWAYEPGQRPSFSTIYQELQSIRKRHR
Assay protocol: phosphorylation enrichment, bacterial display (enrichment ratio); higher = better substrate or ligand; peptides without Tyr show the background
Outcome measure: phosphorylation enrichment
Returns: the value as a bare number; no unit string appended.

Record excerpt, results attached:
{"Query sequence": "TGDVQYRSSVR [FREM2_Y2158]", "Recorded measurement": 0.534}
{"Query sequence": "DSLASYLDKVR [KRT10_Y160_R156S]", "Recorded measurement": 0.78}
{"Query sequence": "KPYRVYCDMNT [FGB_Y269]", "Recorded measurement": 1.13}
{"Query sequence": "EERKTYVNTML [TEK_Y1102_T1106M]", "Recorded measurement": 0.803}
{"Query sequence": "REGDKYVSHGA [ASS1_Y113_A111D]", "Recorded measurement": 1.03}

Which phosphorylation enrichment is reported with Fes (UniProt P07332) for this entry: RLLRGYDQYAY [HLA-B_Y137_H137Y] ?
0.924

Which phosphorylation enrichment is reported with Fes (UniProt P07332) for this entry: QSAGQYSSQGL [TNNI3K_Y788] ?
1.15

Which phosphorylation enrichment is reported with Fes (UniProt P07332) for this entry: LLKKIYLMLDN [STAT1_Y203_M202I] ?
2.38

Which phosphorylation enrichment is reported with Fes (UniProt P07332) for this entry: SQSAKYDMAED [TTC21B_Y1213_I1208S] ?
0.894

Which phosphorylation enrichment is reported with Fes (UniProt P07332) for this entry: FADIAYNYRHA [PAH_Y166_G171A] ?
0.779

* * *

Test system: Fer (mouse)
Assay protocol: phosphorylation enrichment, bacterial display (enrichment ratio); higher = better substrate or ligand; peptides without Tyr show the background
Outcome measure: phosphorylation enrichment
Returns: the value as a bare number; no unit string appended.

Record excerpt, results attached:
{"Query sequence": "QELRRYLESGV [MICA_Y194_K196E]", "phosphorylation enrichment": 0.486}
{"Query sequence": "YEREQYADRTR [RBM4_Y355_A359T]", "phosphorylation enrichment": 0.494}
{"Query sequence": "VNNAVYGIDAM [EIF3J_Y143]", "phosphorylation enrichment": 0.486}

# input for lookup
Need phosphorylation enrichment of FAAAGYGSLEA [EPHA10_Y959] , thanks.
0.487

* * *

System: c-Src
Assay protocol: phosphorylation enrichment, bacterial display (enrichment ratio); higher = better substrate or ligand; peptides without Tyr show the background
Below, each of the sequences is paired with its reported phosphorylation enrichment value.
Returns: the value as a bare number; no unit string appended.

Record excerpt, results attached:
{"Query sequence": "THPFLYLSLEI [MLH1_Y293]", "System": "c-Src", "Recorded measurement": 0.363}
{"Query sequence": "VRRVGYVSGWG [HP_Y280_G276R]", "System": "c-Src", "Recorded measurement": 0.434}
{"Query sequence": "DTCPPYVLSQV [GJB4_Y237_G242V]", "System": "c-Src", "Recorded measurement": 0.606}
{"Query sequence": "YRDALYKSMVD [PHEX_Y250_F252S]", "System": "c-Src", "Recorded measurement": 0.449}
{"Query sequence": "GSIQQYIFKQE [PRG4_Y1271_YF]", "System": "c-Src", "Recorded measurement": 0.545}
{"Query sequence": "NPSYNYEIVNQ [DYNC1H1_Y3379_R3384Q]", "System": "c-Src", "Recorded measurement": 0.506}
{"Query sequence": "HYECKYVINAI [MAOA_Y268]", "System": "c-Src", "Recorded measurement": 0.859}
{"Query sequence": "VRVQLYDPDYM [CYP4A22_Y100]", "System": "c-Src", "Recorded measurement": 0.615}

# input for lookup
Need phosphorylation enrichment of TEALFYTDDTA [ADPRS_Y75_YF] , thanks.
0.634

* * *

Tested on: c-Src
Assay protocol: phosphorylation enrichment, bacterial display (enrichment ratio); higher = better substrate or ligand; peptides without Tyr show the background
Outcome measure: phosphorylation enrichment
Returns: the value as a bare number; no unit string appended.

{"Query sequence": "SIKGKYVTALF [KCNH2_Y611_D609G_YF]", "Recorded measurement": 0.495}

Which phosphorylation enrichment is reported with c-Src for this entry: FDDIAHIRKTL [PIK3CA_Y1021_Y1021H] ?
0.389

Which phosphorylation enrichment is reported with c-Src for this entry: MKTISYETLIA [DOCK10_Y1350] ?
0.379

Which phosphorylation enrichment is reported with c-Src for this entry: ESMLRYDVFGG [STOX1_Y607_E608D_YF] ?
1.1

Which phosphorylation enrichment is reported with c-Src for this entry: IDSTPYRQWFE [RPS8_Y109_YF] ?
0.368

Which phosphorylation enrichment is reported with c-Src for this entry: GRLPEYNTRIA [CCDC151_Y542] ?
0.408

Where do the numbers come from? From the supplement of paper PMC10065799.
